Experiment: NCI Yeast Anticancer Drug Screen. Data for the rad50 strain (AID 155);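 also: 0% = growth of vehicle-only cultures of the same strain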
Settings: S. cerevisiae rad50 strain growth inhibition; at 50.0 µM
This is part of a sample that, as a whole, favours compounds with a hit. Of some 79,000 tested, about 15% had one in any assay. Activity calls are given as the source filed them. Rule as the data show it: active = growth inhibition above about 70%; inactive = the rest.
The reply should be one of these categories: yes (1) for active, no (0) for inactive

Inquiry: What is the recorded call for this compound in the test? `S=c1sc2nc(Cl)nc(Cl)c2s1`
Reply text: yes (1)

Inquiry: What is the recorded call for this compound in the test? `C/C(=N/NC(=O)Nc1ccc(N=Nc2ccccc2)cc1)c1ccccn1`
Reply text: no (0)

For the next question, use this compound.
Inquiry: What is the recorded call for this compound in the test? `CC(C)N(CC(=O)c1ccc2cc(Cl)c3ccccc3c2c1)C(C)C`
Reply text: yes (1)
